Details: in n-butanol, 297.65 K
MEASUREMENT KIND: solubility (mole fraction)

C=CC(=O)NC(C)(C)CC(C)=O :: 0.417

====

Details: in ethanol, 283.15 K
MEASUREMENT KIND: solubility (mole fraction)

C=CC(=O)NC(C)(C)CC(C)=O :: 0.271

====

Conditions: in isopropanol, 278.25 K
MEASUREMENT KIND: solubility (mole fraction)

C=CC(=O)NC(C)(C)CC(C)=O :: 0.197

====

Settings: in acetone, 298.15 K
MEASUREMENT KIND: solubility (mole fraction)

C=CC(=O)NC(C)(C)CC(C)=O :: 0.45

====

Settings: in ethanol, 272.15 K
MEASUREMENT KIND: solubility (mole fraction)

C=CC(=O)NC(C)(C)CC(C)=O :: 0.186

====

Details: in n-hexanol, 293.35 K
MEASUREMENT KIND: solubility (mole fraction)

C=CC(=O)NC(C)(C)CC(C)=O :: 0.346

====

Details: in ethyl acetate, 283.25 K
MEASUREMENT KIND: solubility (mole fraction)

C=CC(=O)NC(C)(C)CC(C)=O :: 0.249

====

Settings: in isopropanol, 272.15 K
MEASUREMENT KIND: solubility (mole fraction)

C=CC(=O)NC(C)(C)CC(C)=O :: 0.155

====

Conditions: in isopropanol, 323.65 K
MEASUREMENT KIND: solubility (mole fraction)

C=CC(=O)NC(C)(C)CC(C)=O :: 0.898

====

Conditions: in ethanol, 303.15 K
MEASUREMENT KIND: solubility (mole fraction)

C=CC(=O)NC(C)(C)CC(C)=O :: 0.5

====

Conditions: in isopropanol, 318.85 K
MEASUREMENT KIND: solubility (mole fraction)

C=CC(=O)NC(C)(C)CC(C)=O :: 0.777

====

Settings: in ethyl acetate, 303.25 K
MEASUREMENT KIND: solubility (mole fraction)

C=CC(=O)NC(C)(C)CC(C)=O :: 0.481

====

Settings: in 2-butanone, 278.25 K
MEASUREMENT KIND: solubility (mole fraction)

C=CC(=O)NC(C)(C)CC(C)=O :: 0.276

====

Conditions: in methanol, 288.15 K
MEASUREMENT KIND: solubility (mole fraction)

C=CC(=O)NC(C)(C)CC(C)=O :: 0.371

====

Conditions: in ethyl formate, 293.35 K
MEASUREMENT KIND: solubility (mole fraction)

C=CC(=O)NC(C)(C)CC(C)=O :: 0.376

====

Conditions: in isopentanol, 293.35 K
MEASUREMENT KIND: solubility (mole fraction)

C=CC(=O)NC(C)(C)CC(C)=O :: 0.352

====

Conditions: in n-propanol, 318.85 K
MEASUREMENT KIND: solubility (mole fraction)

C=CC(=O)NC(C)(C)CC(C)=O :: 0.819

====

Settings: in ethyl formate, 313.15 K
MEASUREMENT KIND: solubility (mole fraction)

C=CC(=O)NC(C)(C)CC(C)=O :: 0.659

====

Conditions: in acetone, 288.45 K
MEASUREMENT KIND: solubility (mole fraction)

C=CC(=O)NC(C)(C)CC(C)=O :: 0.342

====

Conditions: in isopentanol, 278.25 K
MEASUREMENT KIND: solubility (mole fraction)

C=CC(=O)NC(C)(C)CC(C)=O :: 0.197
